Values compiled from patent US8829029B2.

# test-target: human D3 dopamine receptor (Homo sapiens (Human), UniProt P35462)
# Sequence (P35462 whole entry): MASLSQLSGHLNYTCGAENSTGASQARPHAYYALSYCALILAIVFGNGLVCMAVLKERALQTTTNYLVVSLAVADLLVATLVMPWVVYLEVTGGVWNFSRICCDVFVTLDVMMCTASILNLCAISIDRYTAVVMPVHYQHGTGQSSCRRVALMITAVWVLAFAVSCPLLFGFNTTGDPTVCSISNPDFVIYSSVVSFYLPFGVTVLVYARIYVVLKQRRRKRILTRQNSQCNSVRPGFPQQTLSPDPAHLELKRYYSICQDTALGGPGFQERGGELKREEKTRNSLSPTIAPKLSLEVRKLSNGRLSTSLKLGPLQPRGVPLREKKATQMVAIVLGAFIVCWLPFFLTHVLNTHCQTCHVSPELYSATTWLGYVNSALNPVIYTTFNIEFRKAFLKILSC
The class of a record is decided solely by its measured Ki; consult range A: < 6 nM; range B: ≥ 6 nM and < 10 nM; range C: ≥ 10 nM

# compound, test-target, label
rows = [
    ("O=C(N[C@H]1CC[C@H](CCN2CCC(c3noc4cc(F)ccc34)CC2)CC1)c1ccc(N2CCOCC2)nc1 [Example 4A]", "human D3 dopamine receptor (Homo sapiens (Human), UniProt P35462)", "range B"),
    ("COCCC(=O)N[C@H]1CC[C@H](CCN2CCC(c3noc4cc(F)ccc34)CC2)CC1 [Example 3]", "human D3 dopamine receptor (Homo sapiens (Human), UniProt P35462)", "range A"),
    ("O=C(N[C@H]1CC[C@H](CCN2CCC(c3noc4cc(F)ccc34)CC2)CC1)C1COc2ccccc2O1 (stereo partly shown) [Example 15]", "human D3 dopamine receptor (Homo sapiens (Human), UniProt P35462)", "range C"),
    ("CO[C@H]1CC[C@H](CC(=O)N[C@H]2CC[C@H](CCN3CCC(c4noc5cc(F)c(F)cc45)CC3)CC2)CC1 [Example 64]", "human D3 dopamine receptor (Homo sapiens (Human), UniProt P35462)", "range C"),
    ("O=C(N[C@H]1CC[C@H](CCN2CCC(c3noc4ccc(F)cc34)CC2)CC1)c1ccc(N2CCCCC2)cc1 [Example 27]", "human D3 dopamine receptor (Homo sapiens (Human), UniProt P35462)", "range B"),
    ("CS(=O)(=O)CC(=O)N[C@H]1CC[C@H](CCN2CCC(c3noc4cc(Cl)ccc34)CC2)CC1 [Example 56]", "human D3 dopamine receptor (Homo sapiens (Human), UniProt P35462)", "range C"),
    ("COc1cc(CC(=O)N[C@H]2CC[C@H](CCN3CCC(c4noc5cc(F)ccc45)CC3)CC2)cc(OC)c1 [Example 21]", "human D3 dopamine receptor (Homo sapiens (Human), UniProt P35462)", "range B"),
    ("COc1ccc(C(=O)N[C@H]2CC[C@H](CCN3CCC(c4noc5cc(F)ccc45)CC3)CC2)cc1 [Example 8]", "human D3 dopamine receptor (Homo sapiens (Human), UniProt P35462)", "range A"),
    ("CC(=O)N[C@H]1CC[C@H](CCN2CCC(c3noc4cc(C)ccc34)CC2)CC1 [Example 73]", "human D3 dopamine receptor (Homo sapiens (Human), UniProt P35462)", "range B"),
    ("O=C(CC1CCCO1)N[C@H]1CC[C@H](CCN2CCC(c3noc4cc(Cl)c(F)cc34)CC2)CC1 (stereo partly shown) [Example 61]", "human D3 dopamine receptor (Homo sapiens (Human), UniProt P35462)", "range C"),
    ("O=C(CC(F)(F)F)N[C@H]1CC[C@H](CCN2CCC(c3noc4cc(F)ccc34)CC2)CC1 [Example 20]", "human D3 dopamine receptor (Homo sapiens (Human), UniProt P35462)", "range A"),
    ("COC(CC(=O)N[C@H]1CC[C@H](CCN2CCC(c3noc4cc(Cl)ccc34)CC2)CC1)OC [Example 37]", "human D3 dopamine receptor (Homo sapiens (Human), UniProt P35462)", "range B"),
    ("Cc1ccn(CC(=O)N[C@H]2CC[C@H](CCN3CCC(c4noc5cc(F)ccc45)CC3)CC2)n1 [Example 16]", "human D3 dopamine receptor (Homo sapiens (Human), UniProt P35462)", "range C"),
    ("O=C(N[C@H]1CC[C@H](CCN2CCC(c3noc4cc(Cl)ccc34)CC2)CC1)C(O)C(F)(F)F (stereo partly shown) [Example 33]", "human D3 dopamine receptor (Homo sapiens (Human), UniProt P35462)", "range C"),
    ("N#CCC(=O)N[C@H]1CC[C@H](CCN2CCC(c3noc4cc(Cl)ccc34)CC2)CC1 [Example 51]", "human D3 dopamine receptor (Homo sapiens (Human), UniProt P35462)", "range B"),
    ("COc1ccc(S(=O)(=O)N[C@H]2CC[C@H](CCN3CCC(c4noc5cc(F)ccc45)CC3)CC2)cc1 [Example 49]", "human D3 dopamine receptor (Homo sapiens (Human), UniProt P35462)", "range A"),
    ("O=C(N[C@H]1CC[C@H](CCN2CCC(c3noc4cc(F)ccc34)CC2)CC1)c1ccc(-n2cccc2)cc1 [Example 17]", "human D3 dopamine receptor (Homo sapiens (Human), UniProt P35462)", "range A"),
    ("CO[C@@H]1CC[C@@H](CC(=O)N[C@H]2CC[C@H](CCN3CCC(c4noc5cc(F)c(F)cc45)CC3)CC2)C1 [Example 63]", "human D3 dopamine receptor (Homo sapiens (Human), UniProt P35462)", "range C"),
    ("COCCC(=O)N[C@H]1CC[C@H](CCN2CCC(c3noc4cc(F)c(F)cc34)CC2)CC1 [Example 65]", "human D3 dopamine receptor (Homo sapiens (Human), UniProt P35462)", "range C"),
    ("O=C(CCO)N[C@H]1CC[C@H](CCN2CCC(c3noc4cc(F)c(F)cc34)CC2)CC1 [Example 68]", "human D3 dopamine receptor (Homo sapiens (Human), UniProt P35462)", "range C"),
]

----------
Observed Ki for human 5-HT2A serotonin receptor (Homo sapiens (Human), UniProt P28223), reported per entry below.
test-readout: Ki (nM)

# compound, test-readout, reported-measurement
data = [
    ("COC[C@H]1CC[C@H](CC(=O)N[C@H]2CC[C@H](CCN3CCC(c4noc5cc(Cl)ccc45)CC3)CC2)CC1 [Example 44]", "Ki", 19),
    ("COCCC(=O)N[C@H]1CC[C@H](CCN2CCC(c3noc4cc(Cl)c(F)cc34)CC2)CC1 [Example 60]", "Ki", 44),
    ("O=C(N[C@H]1CC[C@H](CCN2CCC(c3noc4cc(F)ccc34)CC2)CC1)c1ccc(N2CCOCC2)c(F)c1 [Example 5]", "Ki", 17.5),
    ("O=C(C[C@H]1CC[C@H](O)CC1)N[C@H]1CC[C@H](CCN2CCC(c3noc4cc(F)c(F)cc34)CC2)CC1 [Example 69]", "Ki", 7.85),
    ("COCC(=O)N[C@H]1CC[C@H](CCN2CCC(c3noc4cc(F)c(F)cc34)CC2)CC1 [Example 62]", "Ki", 10.5),
    ("CC1(C)OC[C@H](CC(=O)N[C@H]2CC[C@H](CCN3CCC(c4noc5cc(Cl)ccc45)CC3)CC2)O1 [Example 40]", "Ki", 25),
    ("O=C(N[C@H]1CC[C@H](CCN2CCC(c3noc4cc(F)ccc34)CC2)CC1)c1ccc(N2CCS(=O)(=O)CC2)cc1 [Example 11]", "Ki", 2.48),
    ("O=C(CC(F)(F)F)N[C@H]1CC[C@H](CCN2CCC(c3noc4cc(F)ccc34)CC2)CC1 [Example 20]", "Ki", 2.78),
    ("COc1cc(CC(=O)N[C@H]2CC[C@H](CCN3CCC(c4noc5cc(F)ccc45)CC3)CC2)cc(OC)c1 [Example 21]", "Ki", 2.95),
    ("O=C(N[C@H]1CC[C@H](CCN2CCC(c3noc4cc(F)ccc34)CC2)CC1)C1COc2ccccc2O1 (stereo partly shown) [Example 15]", "Ki", 2.57),
    ("C[C@@H](O)CC(=O)N[C@H]1CC[C@H](CCN2CCC(c3noc4cc(Cl)ccc34)CC2)CC1 [Example 39]", "Ki", 13),
    ("COC1(C)CCC(CC(=O)N[C@H]2CC[C@H](CCN3CCC(c4noc5cc(Cl)ccc45)CC3)CC2)CC1 (stereo partly shown) [Example 42]", "Ki", 19),
    ("CO[C@H]1CC[C@H](CC(=O)N[C@H]2CC[C@H](CCN3CCC(c4noc5cc(Cl)ccc45)CC3)CC2)C1 [Example 41]", "Ki", 14),
    ("O=C(N[C@H]1CC[C@H](CCN2CCC(c3noc4ccc(F)cc34)CC2)CC1)c1ccc(N2CCS(=O)(=O)CC2)cc1 [Example 29]", "Ki", 12.4),
    ("CC1CN(c2ccc(C(=O)N[C@H]3CC[C@H](CCN4CCC(c5noc6ccc(F)cc56)CC4)CC3)cc2)CC(C)O1 (stereo partly shown) [Example 28]", "Ki", 99.1),
    ("CO[C@@H](C)CC(=O)N[C@H]1CC[C@H](CCN2CCC(c3noc4cc(Cl)ccc34)CC2)CC1 [Example 43B]", "Ki", 16),
]

----------
pKi: −log10 of the molar value.
Entries with their measured pKi, system human D3 dopamine receptor (Homo sapiens (Human)):
test-readout: pKi

# molecule, test-readout, reported-measurement
records = [
    ("CO[C@H](C)CC(=O)N[C@H]1CC[C@H](CCN2CCC(c3noc4cc(Cl)ccc34)CC2)CC1 [Example 43A]", "pKi", 7.82),
    ("CC(=O)N[C@H]1CC[C@H](CCN2CCC(c3noc4ccc(F)cc34)CC2)CC1 [Example 24]", "pKi", 8.61),
    ("O=C(N[C@H]1CC[C@H](CCN2CCC(c3noc4ccc(F)cc34)CC2)CC1)c1ccc(N2CCOCC2)cc1 [Example 25]", "pKi", 8.04),
    ("CO[C@H]1CC[C@H](CC(=O)N[C@H]2CC[C@H](CCN3CCC(c4noc5cc(Cl)ccc45)CC3)CC2)C1 [Example 41]", "pKi", 8.00),
    ("O=C(CC1CCC2(CC1)OCCO2)N[C@H]1CC[C@H](CCN2CCC(c3noc4cc(Cl)ccc34)CC2)CC1 [Example 36]", "pKi", 7.91),
    ("CS(=O)(=O)N[C@H]1CC[C@H](CCN2CCC(c3noc4ccc(F)cc34)CC2)CC1 [Example 59]", "pKi", 8.10),
    ("CC1(C)OC[C@H](CC(=O)N[C@H]2CC[C@H](CCN3CCC(c4noc5cc(Cl)ccc45)CC3)CC2)O1 [Example 40]", "pKi", 8.22),
    ("O=C(N[C@H]1CC[C@H](CCN2CCC(c3noc4cc(F)ccc34)CC2)CC1)c1cnc(N2CCOCC2)nc1 [Example 4D]", "pKi", 7.81),
]
